Tested on: U-2932
Experiment: growth inhibition by drug alone (1 - RLU/untreated control) (fraction); higher = stronger inhibition
Conditions: 1000 nM; time (day): 4; 177Lu-lilotomab satetraxetan 0 ug/ml
quantity: growth inhibition by drug alone

- molecule: "C[C@@H](O[C@H]1OCCN(Cc2n[nH]c(=O)[nH]2)[C@H]1c1ccc(F)cc1)c1cc(C(F)(F)F)cc(C(F)(F)F)c1 [Aprepitant (MK-0869)]"
  quantity: "growth inhibition by drug alone"
  reading: -0.0282
- molecule: "CCn1c(-c2nonc2N)nc2cnc(Oc3cccc(NC(=O)c4ccc(OCCN5CCOCC5)cc4)c3)cc21"
  quantity: "growth inhibition by drug alone"
  reading: 0.0519
- molecule: "O=C(/C=C/c1cccnc1)NCCCCC1CCN(C(=O)c2ccccc2)CC1"
  quantity: "growth inhibition by drug alone"
  reading: 0.985

[in] For the molecule shown here, CCc1ccc(CCOc2ccc(CC3SC(=O)NC3=O)cc2)nc1 (centres undefined) , give the reported growth inhibition by drug alone.
[out] -0.0693

----------
System: U-2932
Experiment: growth inhibition by drug plus 177Lu-lilotomab satetraxetan (1 - RLU/untreated control) (fraction); higher = stronger inhibition
Conditions: 1000 nM; time (day): 6; 177Lu-lilotomab satetraxetan 1 ug/ml
Known growth inhibition by drug plus 177Lu-lilotomab satetraxetan of a selection of molecules
Note: the reply should be a number with no unit written.

- molecule: "N#CC(c1ccnc(NCCc2cccnc2)n1)c1nc2ccccc2s1 (stereo unspecified) [JNK Inhibitor V]"
  reading: 0.0923

[in] Can you look up the measured growth inhibition by drug plus 177Lu-lilotomab satetraxetan of `Cc1ccnc(NS(=O)(=O)c2ccc(NC(=O)Nc3ccc(S(=O)(=O)Nc4nccc(C)n4)cc3)cc2)n1` for me?
[out] 0.303

----------
System: U-2932
Assay: growth inhibition by drug alone (1 - RLU/untreated control) (fraction); higher = stronger inhibition
Details: 1000 nM; time (day): 6; 177Lu-lilotomab satetraxetan 0 ug/ml
quantity: growth inhibition by drug alone

- molecule: "O=C1[C@H](CC[C@H](O)c2ccc(F)cc2)[C@@H](c2ccc(O)cc2)N1c1ccc(F)cc1 [Ezetimibe (Zetia)]"
  target_or_system: "U-2932"
  quantity: "growth inhibition by drug alone"
  reading: -0.0102
- molecule: "O=C(Nc1cccnc1)N1CCC(Cc2cccc(Oc3ccc(C(F)(F)F)cn3)c2)CC1"
  target_or_system: "U-2932"
  quantity: "growth inhibition by drug alone"
  reading: 0.872

[in] Fill blank: measured growth inhibition by drug alone of the molecule `Nc1nc(F)nc2c1ncn2[C@@H]1O[C@H](CO)[C@@H](O)[C@@H]1O` is ____.
[out] -0.0258

[in] Lookup `Cc1ccc(C(=O)Nc2ccc(CN3CCN(C)CC3)c(C(F)(F)F)c2)cc1C#Cc1cnc2cccnn12`
[out] 0.718

[in] And CC(C)n1c(/C=C/C(O)CC(O)CC(=O)O)c(-c2ccc(F)cc2)c2ccccc21 (stereo unspecified) [Fluvastatin sodium (Lescol)] ?
[out] 0.0255

[in] Please answer likewise for `COC(=O)c1ccc2c(C(=Nc3ccc(N(C)C(=O)CN4CCN(C)CC4)cc3)c3ccccc3)c(O)[nH]c2c1`
[out] -0.173

[in] Another molecule to check: `COc1ccc(CCN(C)CCCOc2ccc(S(=O)(=O)c3c(C(C)C)n(C)c4ccccc34)cc2)cc1OC`
[out] -0.132

----------
Test system: U-2932
Assay: growth inhibition by drug alone (1 - RLU/untreated control) (fraction); higher = stronger inhibition
Conditions: 10 nM; time (day): 4; 177Lu-lilotomab satetraxetan 0 ug/ml
// reported growth inhibition by drug alone for each item listed
Lab note: write the figure by itself, no unit.

// solved cases for growth inhibition by drug alone follow
- compound: "CNC(=O)c1cc(Oc2ccc(NC(=O)Nc3ccc(Cl)c(C(F)(F)F)c3)c(F)c2)ccn1 [Regorafenib (BAY 73-4506)]"
  reading: 0.0913
- compound: "CCCC(=O)[O-].[Na+] [Sodium butyrate]"
  reading: -0.057
- compound: "CN1CCN(c2ccc3nc(-c4c(N)c5c(F)cccc5[nH]c4=O)[nH]c3c2)CC1 [Dovitinib (TKI-258)]"
  reading: 0.0504
- compound: "COc1ccc(CCN2CCN(CCCc3ccccc3)CC2)cc1OC"
  reading: -0.00972
- compound: "Cc1cn(-c2cc(NC(=O)c3ccc(C)c(Nc4nccc(-c5cccnc5)n4)c3)cc(C(F)(F)F)c2)cn1 [Nilotinib (AMN-107)]"
  reading: 0.0185

[in] What does the data say about its growth inhibition by drug alone? Entry: Nc1nc2[nH]cc(CCc3ccc(C(=O)N[C@@H](CCC(=O)O)C(=O)O)cc3)c2c(=O)[nH]1 [Pemetrexed]
[out] -0.0188

[in] Cool, now CCOc1ccc(Cc2cc([C@@H]3O[C@H](CO)[C@@H](O)[C@H](O)[C@H]3O)ccc2Cl)cc1 [Dapagliflozin]
[out] 0.11

[in] Another compound to look at: CN(NC(=O)CC(=O)NN(C)C(=S)c1ccccc1)C(=S)c1ccccc1 [Elesclomol]
[out] 0.791

[in] # iterate: `CCn1c(-c2nonc2N)nc2cnc(Oc3cccc(NC(=O)c4ccc(OCCN5CCOCC5)cc4)c3)cc21`
[out] -0.155

[in] One more compound: CO[C@H]1C[C@@H]2CC[C@@H](C)[C@@](O)(O2)C(=O)C(=O)N2CCCC[C@H]2C(=O)O[C@H]([C@H](C)C[C@@H]2CC[C@@H](OCCO)[C@H](OC)C2)CC(=O)[C@H](C)/C=C(\C)[C@@H](O)[C@@H](OC)C(=O)[C@H](C)C[C@H](C)/C=C/C=C/C=C/1C [Everolimus (RAD001)]
[out] 0.686

----------
Tested on: RIVA
Assay: growth inhibition by drug plus 177Lu-lilotomab satetraxetan (1 - RLU/untreated control) (fraction); higher = stronger inhibition
Details: 100 nM; time (day): 6; 177Lu-lilotomab satetraxetan 0.5 ug/ml
quantity: growth inhibition by drug plus 177Lu-lilotomab satetraxetan
Give your answer as a number; write no unit.

Example cases with answers are listed next.
- molecule: "CN(C)Cc1c(C(=O)NCCOc2ccc(C(=O)NO)cc2)oc2ccccc12"
  reading: 0.938
- molecule: "CN1C(=O)C(Cc2c[nH]c3ccccc23)NC1=S (configuration not stated)"
  reading: 0.476
- molecule: "CC(=O)O[C@@]12CO[C@@H]1C[C@H](O)[C@@]1(C)C(=O)[C@H](O)C3=C(C)[C@@H](OC(=O)[C@H](O)[C@@H](NC(=O)OC(C)(C)C)c4ccccc4)C[C@@](O)([C@@H](OC(=O)c4ccccc4)[C@H]21)C3(C)C"
  reading: 0.987
- molecule: "COc1cc2ncnc(Nc3ccc(Oc4ccccc4)cc3)c2cc1OC"
  reading: 0.521
- molecule: "O=C(/C=C/c1cccc(S(=O)(=O)Nc2ccccc2)c1)NO"
  reading: 0.945
- molecule: "Nc1[nH]nc2nnc(-c3c(-c4ccccc4)nn4ccccc34)cc12"
  reading: 0.495

Now consider the entry below.
[in] So what's the measured growth inhibition by drug plus 177Lu-lilotomab satetraxetan for this one? `CC[C@@H]1C(=O)N(C)c2cnc(Nc3ccc(C(=O)N[C@H]4CC[C@H](N5CCN(CC6CC6)CC5)CC4)cc3OC)nc2N1C(C)C`
[out] 0.981

----------
System: U-2932
Assay: growth inhibition by drug plus 177Lu-lilotomab satetraxetan (1 - RLU/untreated control) (fraction); higher = stronger inhibition
Details: 10 nM; time (day): 5; 177Lu-lilotomab satetraxetan 1 ug/ml
Where a name gives a salt, the structure may show the parent alone.
Entries and their growth inhibition by drug plus 177Lu-lilotomab satetraxetan
Please reply with the number alone, leaving off any unit.

Answered cases to consult:
- compound: "Cc1ccc(NC(=O)c2ccc(CN3CCN(C)CC3)cc2)cc1Nc1nccc(-c2cccnc2)n1 [Imatinib (Gleevec)]"
  reading: 0.124
- compound: "C[C@]12CC[C@@H]3c4ccc(O)cc4C[C@@H](CCCCCCCCC[S+]([O-])CCCC(F)(F)C(F)(F)F)[C@H]3[C@@H]1CC[C@@H]2O (stereo not given in full)"
  reading: 0.0351

[in] Value lookup for growth inhibition by drug plus 177Lu-lilotomab satetraxetan; key = `CC(=O)Nc1cccc(-n2c(=O)n(C3CC3)c(=O)c3c(Nc4ccc(I)cc4F)n(C)c(=O)c(C)c32)c1`
[out] 0.11

[in] Next compound up: O=C(O)c1ccc2c(c1)nc(Nc1cccc(Cl)c1)c1ccncc12 [cx-4945 (Silmitasertib)]
[out] 0.0445

[in] Same for `OCCn1cc(-c2cnc3nnn(Cc4ccc5ncccc5c4)c3n2)cn1`
[out] 0.0857

[in] Param item: Cc1ccc(NC(=O)c2ccc(CN3CC[C@H](N(C)C)C3)c(C(F)(F)F)c2)cc1Nc1nccc(-c2cncnc2)n1 [Bafetinib (INNO-406)]
[out] 0.138

[in] Quick one: `Cc1ccc(C(=O)N(CCCN)[C@@H](c2nc3cc(Cl)ccc3c(=O)n2Cc2ccccc2)C(C)C)cc1`
[out] 0.426

[in] // query: Clc1ccc(Nc2nnc(Cc3ccncc3)c3ccccc23)cc1 [Vatalanib dihydrochloride (PTK787)]
[out] 0.0124

[in] Another compound to check: CCOc1cc2ncc(C#N)c(Nc3ccc(OCc4ccccn4)c(Cl)c3)c2cc1NC(=O)/C=C/CN(C)C [Neratinib (HKI-272)]
[out] 0.0327

[in] Note, next up: COc1cc([C@@H]2c3cc4c(cc3[C@@H](O[C@@H]3O[C@@H]5CO[C@@H](C)O[C@H]5[C@H](O)[C@H]3O)[C@H]3COC(=O)[C@H]23)OCO4)cc(OC)c1O [Etoposide (VP-16)]
[out] -0.0473

[in] Could you do the same for CCC(C)n1ncn(-c2ccc(N3CCN(c4ccc(OCC5COC(Cn6cncn6)(c6ccc(Cl)cc6Cl)O5)cc4)CC3)cc2)c1=O (stereo not given) [Itraconazole (Sporanox)] , please?
[out] 0.142

[in] # repeat for `CN(c1ncccc1CNc1nc(Nc2ccc3c(c2)CC(=O)N3)ncc1C(F)(F)F)S(C)(=O)=O`
[out] 0.2

[in] Follow-up entry: `CS(=O)(=O)c1cccc(CNc2nc(Nc3ccc4c(c3)CCC(=O)N4)ncc2C(F)(F)F)c1`
[out] 0.101

[in] # repeat for `CN[C@@H](C)C(=O)N[C@H]1CN(C(=O)CC(C)C)CC[C@H]2CC[C@@H](C(=O)NC(c3ccccc3)c3ccccc3)N2C1=O`
[out] 0.0157

[in] And then COc1ccc(COc2cc3oc(=O)c4cc(C(C)O)ccc4c3cc2OC)cc1 (stereo not given) [Palomid 529] , what is it?
[out] 0.0363
